Assay: Solubility of aspacytarabine in different solubilizers/stabilizers (Table 1, FIG. 1)
Format: physicochemical
Conditions: aqueous solution with 1% w/w poloxamer 188 and 5% w/w PVP, aqueous with cosolvent or surfactant or cyclodextrin, thermodynamic from solid; solubilizer/stabilizer Poloxamer 1% + 5% PVP aqueous solution; after 24 hours, room temperature, pH 4.5; read-out: Conc (solubility of aspacytarabine)
measurement name: solubility at 24 h
Record the result as number plus unit.

**Q:** What solubility at 24 h value was documented for this compound, `N[C@@H](CC(=O)Nc1ccn([C@@H]2O[C@H](CO)[C@@H](O)[C@@H]2O)c(=O)n1)C(=O)O` ?
**A:** 90.9 mg/mL

###

Assay: Solubility of aspacytarabine in different solubilizers/stabilizers (Table 1, FIG. 1)
Format: physicochemical
Conditions: neat PEG 400, pH 4.5, organic solvent or mixture, thermodynamic from solid; solubilizer/stabilizer PEG400 (neat); after 24 hours, room temperature; read-out: Conc (solubility of aspacytarabine)
measurement name: solubility at 24 h (mg/mL)
Give bare numbers, in mg/mL.

**Q:** What solubility at 24 h value was documented for this molecule, N[C@@H](CC(=O)Nc1ccn([C@@H]2O[C@H](CO)[C@@H](O)[C@@H]2O)c(=O)n1)C(=O)O [aspacytarabine] ?
**A:** 50.5
